Task for the reader: assign each of the following binders its reported pKd.
tested target: T1, recombinant human aggregated full-length TDP-43 (human, UniProt Q13148 1-414)
T1 construct: also called aggregated TDP-43; aggregated FL TDP-43
T1 sequence (Q13148 whole entry): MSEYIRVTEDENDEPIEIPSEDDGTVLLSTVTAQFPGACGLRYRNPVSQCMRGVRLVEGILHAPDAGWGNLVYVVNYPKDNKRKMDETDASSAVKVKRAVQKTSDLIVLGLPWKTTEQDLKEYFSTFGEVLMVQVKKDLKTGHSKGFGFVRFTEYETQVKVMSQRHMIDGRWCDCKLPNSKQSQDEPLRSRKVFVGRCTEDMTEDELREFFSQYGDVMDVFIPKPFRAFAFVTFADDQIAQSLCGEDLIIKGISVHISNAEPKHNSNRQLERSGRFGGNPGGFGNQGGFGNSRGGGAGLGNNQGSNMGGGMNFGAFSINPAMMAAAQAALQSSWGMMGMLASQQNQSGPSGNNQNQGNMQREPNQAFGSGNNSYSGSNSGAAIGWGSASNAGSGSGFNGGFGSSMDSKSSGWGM
test summary: SPR, immobilized aggregated TDP-43
Remember, pKd is on a log scale: it is -log10 of the molar concentration.

State its pKd for this binder: ACI-7071-809F12-Ab1 (antibody, mouse IgG2b, V domains shown, Mouse IgG2b, kappa, from hybridoma; also called 809F12D8) VH: QVQLKESGPGLVAPSQSLSITCTVSGFSLNRNGVQWVRQPPGKGLEWLGVIWPGGSTNCNSALMSRLSISKDNSKSQVFLKMNSLHTDDTGIYYCARVGGNYVWDYNNYAWGQGTLVTVSA VL: DVLMTQTPLSLPVSLGDQASISCRSSQNIVHSIGNTYLEWYLQKPGQSPKLLIYKVSNRFSGVPDRFSGSGSGTDFTLKISRVEAEDLGVYYCFQGSHVPYTFGGGTKLEIR
9.09

State its pKd for this binder: ACI-7069-641H1-Ab2 (antibody, mouse IgG2b, V domains shown, Mouse IgG2b, kappa, from hybridoma; also called 641H1E7) VH: QVQLKESGPGLVAPSQSLSITCTVSGFSLTNYGVHWVRQPPGKGLEWLGLMWAGGSTNYNSALMSRLSISKDNSKSQVFLKMNSLQTDDTAMYYCVIYRTGFAYWGQGTLVTVSA VL: DVLMTQTPLSLPVSLGDQASISCRSSQSIVHTIGNTYLEWYLQKPGQSPKLLIYKVSNRFSGVPDRFSGSGSGTDFTLKISRVEAEDLGVYYCFQGSHVPFTFGSGTKLEIK
8.80
